target: Full length Human HDAC6 (Homo sapiens)
endpoint label: IC50

As a guide, the following entries are already answered.
- O=C(NO)c1cc(F)c2c(c1)C[C@@H]1CCCN1C2 (single isomer, unassigned) [Compound 119]: 0.1 to 1 µM
- CC(=O)N1CCC[C@]2(C1)C[C@H](N1CCc3cc(C(=O)NO)cc(F)c3C1)C2 (single isomer, unassigned) [Compound 348]: 0.001 to 0.1 µM
- O=C(NO)c1ccc2c(c1)CN1CCCC[C@H]1C2 [Compound 144]: 0.1 to 1 µM
- CC[C@H]1Cc2c(F)cc(C(=O)NO)cc2CN1CC1CCC2(CCC2)CC1 (single isomer, unassigned) [Compound 528]: 0.001 to 0.1 µM

// query Which value of IC50 has been reported for O=C(NO)c1ccc2c(c1)C[C@@H]1CCCN1C2 [Compound 121] in the records?
// result 0.1 to 1 µM

// query Which value of IC50 has been reported for CC[C@H]1Cc2c(F)cc(C(=O)NO)cc2CN1CC1CCCCC1 (single isomer, unassigned) [Compound 518] in the records?
// result 0.001 to 0.1 µM

// query Which value of IC50 has been reported for CC[C@@H]1Cc2c(F)cc(C(=O)NO)cc2CN1C[C@@]12C[C@@H](CO1)N(C)C2 (single isomer, unassigned) [Compound 555] in the records?
// result > 100 µM

// query Which value of IC50 has been reported for CN1[C@@H]2CC[C@H]1CC(CN1CCc3cc(C(=O)NO)cc(F)c3C1)C2 (single isomer, unassigned) [Compound 482] in the records?
// result 0.001 to 0.1 µM

// query Which value of IC50 has been reported for C[C@H]1CC[C@H]2c3c(F)cc(C(=O)NO)cc3CCN12 (single isomer, unassigned) [Compound 157] in the records?
// result 0.001 to 0.1 µM

###

Biological target: Full length Human HDAC6 (Homo sapiens)
Sequence (Q9UBN7 1-1215): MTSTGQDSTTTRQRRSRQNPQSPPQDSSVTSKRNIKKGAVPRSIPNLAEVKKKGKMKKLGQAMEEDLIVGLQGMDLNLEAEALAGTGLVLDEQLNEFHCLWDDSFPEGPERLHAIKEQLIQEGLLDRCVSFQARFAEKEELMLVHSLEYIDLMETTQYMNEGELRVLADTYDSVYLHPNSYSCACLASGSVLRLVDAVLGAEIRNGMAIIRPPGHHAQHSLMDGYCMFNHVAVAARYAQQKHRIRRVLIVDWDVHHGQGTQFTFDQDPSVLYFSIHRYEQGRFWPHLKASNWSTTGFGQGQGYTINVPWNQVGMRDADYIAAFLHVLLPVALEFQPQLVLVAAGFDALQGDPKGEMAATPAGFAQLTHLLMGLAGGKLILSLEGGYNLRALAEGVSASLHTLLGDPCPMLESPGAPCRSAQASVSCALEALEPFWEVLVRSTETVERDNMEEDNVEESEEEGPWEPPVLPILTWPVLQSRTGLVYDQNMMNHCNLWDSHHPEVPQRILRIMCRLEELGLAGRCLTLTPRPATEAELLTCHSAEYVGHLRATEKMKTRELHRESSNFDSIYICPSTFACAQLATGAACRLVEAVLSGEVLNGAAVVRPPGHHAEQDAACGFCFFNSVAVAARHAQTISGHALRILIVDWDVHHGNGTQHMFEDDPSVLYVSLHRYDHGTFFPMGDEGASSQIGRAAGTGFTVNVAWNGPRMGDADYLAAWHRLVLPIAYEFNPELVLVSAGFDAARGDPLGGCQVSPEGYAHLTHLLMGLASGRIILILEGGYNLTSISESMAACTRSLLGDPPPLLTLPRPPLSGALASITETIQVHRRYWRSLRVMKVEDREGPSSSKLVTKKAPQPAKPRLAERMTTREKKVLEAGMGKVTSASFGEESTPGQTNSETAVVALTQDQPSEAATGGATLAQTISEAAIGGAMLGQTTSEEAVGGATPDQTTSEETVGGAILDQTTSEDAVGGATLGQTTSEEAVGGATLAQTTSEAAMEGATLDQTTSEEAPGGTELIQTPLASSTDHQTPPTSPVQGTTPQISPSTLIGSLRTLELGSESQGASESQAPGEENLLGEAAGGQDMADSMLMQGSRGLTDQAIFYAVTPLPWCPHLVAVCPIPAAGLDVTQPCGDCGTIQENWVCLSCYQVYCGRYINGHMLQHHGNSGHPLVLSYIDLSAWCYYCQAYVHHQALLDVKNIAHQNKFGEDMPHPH
pIC50: −log10 of the molar value.
Listing of recorded pIC50 by entry.

As a guide, the following entries are already answered.
- CN1CC[C@]2(CC[C@@H]2N2CCc3cc(C(=O)NO)cc(F)c3C2)C1 (single isomer, unassigned): 7.00 to 9.00
- O=C(NO)c1cc(F)c2c(c1)CCN(CC1CC3CCC(C1)N3C1CC1)C2 (stereo not shown): 7.00 to 9.00
- CC[C@H]1Cc2c(F)cc(C(=O)NO)cc2CN1CC1CC2CCC(C1)N2C1CC1 (single isomer, unassigned): 7.00 to 9.00

// query Which value of pIC50 has been reported for O=C(NO)c1cc(F)c2c(c1)CCN([C@@H]1CCC3(CCCC3)C1)C2 (single isomer, unassigned) in the records?
// result 7.00 to 9.00

###

Target: Full length Human HDAC8 (Homo sapiens, UniProt Q9BY41)
Sequence (Q9BY41 1-377): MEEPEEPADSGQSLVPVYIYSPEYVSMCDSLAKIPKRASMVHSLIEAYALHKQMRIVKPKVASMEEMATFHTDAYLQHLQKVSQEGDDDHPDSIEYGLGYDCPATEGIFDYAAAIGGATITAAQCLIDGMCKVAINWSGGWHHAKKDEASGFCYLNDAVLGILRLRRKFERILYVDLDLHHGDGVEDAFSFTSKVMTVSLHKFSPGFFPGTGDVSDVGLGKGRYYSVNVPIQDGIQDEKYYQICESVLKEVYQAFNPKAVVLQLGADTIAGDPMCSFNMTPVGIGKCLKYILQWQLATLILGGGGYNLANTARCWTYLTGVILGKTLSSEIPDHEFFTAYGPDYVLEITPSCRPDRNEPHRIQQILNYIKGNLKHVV
endpoint label: IC50

* O=C(NO)c1cc(F)c2c(c1)CCN([C@H]1CCN(Cc3ccccc3)C3(CCC3)C1)C2 (single isomer, unassigned) [Compound 443] | 10 to 100 µM
* CC[C@H]1Cc2c(F)cc(C(=O)NO)cc2CN1C[C@@]12C[C@@H](CO1)N(C)C2 (single isomer, unassigned) [Compound 553] | 10 to 100 µM

Let's switch to this compound now.
// query Which value of IC50 has been reported for O=C(NO)c1cc(F)c2c(c1)CCN(CC1C3CC1CN(C1CC1)C3)C2 (stereo not drawn) [Compound 494] in the records?
// result 1 to 10 µM

###

pIC50: −log10 of the molar value.
Form: system (Full length Human HDAC6 (Homo sapiens)), quantity (pIC50), values below.

• CC1(C)C[C@@H]2Cc3c(F)cc(C(=O)NO)cc3CN2C1 = 7.00 to 9.00
• O=C(NO)c1cc(F)c2c(c1)CCN([C@@H]1CCN(C3CC3)C3(CCC3)C1)C2 (single isomer, unassigned) = 7.00 to 9.00
• O=C(NO)c1ccc2c(c1)C[C@H]1CCCN1C2 = 6.00 to 7.00
• O=C(NO)c1cc(F)c2c(c1)CCN(C1CCC3(CCNCC3)C1)C2 (centres unmarked) = 7.00 to 9.00
• O=C(NO)c1cc(F)c2c(c1)CCN(C1CCC13CCCC3)C2 (centres unmarked) = 7.00 to 9.00

// query Param readout= pIC50; system= Full length Human HDAC6 (Homo sapiens); entry= O=C(NO)c1cc(F)c2c(c1)CCN([C@H]1CCOC3(CCC3)C1)C2 (single isomer, unassigned) ; returns value.
// result 7.00 to 9.00

// query Param readout= pIC50; system= Full length Human HDAC6 (Homo sapiens); entry= O=C(NO)c1cc(F)c2c(c1)CCN(C1CCC3(C1)CN(C1CC1)C3)C2 (centres unmarked) ; returns value.
// result 6.00 to 7.00

// query Param readout= pIC50; system= Full length Human HDAC6 (Homo sapiens); entry= CC[C@H]1Cc2c(F)cc(C(=O)NO)cc2CN1C1CCC1 (single isomer, unassigned) ; returns value.
// result 6.00 to 7.00

###

target: Full length Human HDAC6 (Homo sapiens, UniProt Q9UBN7); construct: Full length Human HDAC6; FLAG (C); host or cells: baculovirus expression system; experiment: Caliper endpoint assay for HDAC enzymatic activity (HDAC6); assay type: biochemical; settings: ratio of HDAC8 IC50/HDAC6 IC50
endpoint label: Selectivity (6 v 8)

As a guide, the following entries are already answered.
- [2H]c1cc2c(cc1C(=O)NO)CCN(C1CC3(CCCCC3)C1)C2: IV (IV: >100-1000)
- CC[C@H]1Cc2c(F)cc(C(=O)NO)cc2CN1C1CCC1 (single isomer, unassigned): IV (IV: >100-1000)
- O=C(NO)c1cc(F)c2c(c1)CCN(CC1CCC3(CC1)CNC3)C2: V (V: >1000)
- CC(=O)N1CC2(CCC(N3CCc4cc(C(=O)NO)cc(F)c4C3)CC2)C1: IV (IV: >100-1000)
- O=C(NO)c1cc(F)c2c(c1)CCN([C@@H]1CCC3(CCC3)C1)C2 (single isomer, unassigned): V (V: >1000)

Let's switch to this molecule now.
// query Which value of Selectivity (6 v 8) has been reported for CN1CC[C@@]2(CC[C@@H](N3CCc4cc(C(=O)NO)cc(F)c4C3)C2)C1 (single isomer, unassigned) in the records?
// result IV (IV: >100-1000)
